Could you please report measured AIRE transcriptional activation functional score for the items listed next?
B1: library; numbered along this chain (parent)
chain: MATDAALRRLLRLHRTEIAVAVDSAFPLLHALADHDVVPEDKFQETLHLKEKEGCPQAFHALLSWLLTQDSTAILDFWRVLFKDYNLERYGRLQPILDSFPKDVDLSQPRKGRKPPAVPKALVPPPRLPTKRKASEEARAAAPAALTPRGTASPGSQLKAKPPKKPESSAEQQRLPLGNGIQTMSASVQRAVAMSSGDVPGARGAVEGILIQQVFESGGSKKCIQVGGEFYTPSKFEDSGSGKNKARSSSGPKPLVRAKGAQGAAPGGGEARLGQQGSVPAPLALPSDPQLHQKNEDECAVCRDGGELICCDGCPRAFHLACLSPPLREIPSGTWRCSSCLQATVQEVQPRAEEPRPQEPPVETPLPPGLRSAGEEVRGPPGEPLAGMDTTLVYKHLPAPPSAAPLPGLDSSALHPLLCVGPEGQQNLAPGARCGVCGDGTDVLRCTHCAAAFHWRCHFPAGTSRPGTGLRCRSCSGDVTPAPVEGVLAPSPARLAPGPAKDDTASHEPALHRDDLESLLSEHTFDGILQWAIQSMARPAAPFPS

# Variants of: B1
# ASSAY_REMARKS: AIRE transcriptional activation functional score (insulin promoter-GFP; nonsense median 0, synonymous median 1) (normalised score); higher = higher AIRE activity (more reporter activation)
# EXPERIMENTAL_SETUP: with insulin promoter-GFP reporter in HEK293
# answer = number (no unit)

Measured AIRE transcriptional activation functional score, A496Q : 1.04

Measured AIRE transcriptional activation functional score, P101F : -0.111

Measured AIRE transcriptional activation functional score, G467T : 0.0754

Measured AIRE transcriptional activation functional score, A300I : 1.11

Measured AIRE transcriptional activation functional score, H507Q : 0.898

Measured AIRE transcriptional activation functional score, D198F : 0.583

Measured AIRE transcriptional activation functional score, N244Y : 1.25

Measured AIRE transcriptional activation functional score, L291T : 0.708

Measured AIRE transcriptional activation functional score, E298K : 1.07

Measured AIRE transcriptional activation functional score, S411Q : 0.0682

Measured AIRE transcriptional activation functional score, F236L : 0.651

Measured AIRE transcriptional activation functional score, K245E : 0.245

Measured AIRE transcriptional activation functional score, G462D : 0.731

Measured AIRE transcriptional activation functional score, G313L : 1.28

Measured AIRE transcriptional activation functional score, P407W : 1.13

Measured AIRE transcriptional activation functional score, D503I : 0.789

Measured AIRE transcriptional activation functional score, A117N : 0.792

Measured AIRE transcriptional activation functional score, L29G : -0.175

Measured AIRE transcriptional activation functional score, K42V : 0.822

Measured AIRE transcriptional activation functional score, G219H : 0.761

Measured AIRE transcriptional activation functional score, A142V : 1.27

Measured AIRE transcriptional activation functional score, D70S : 2.47

Measured AIRE transcriptional activation functional score, L175I : 0.709

Measured AIRE transcriptional activation functional score, V436M : 0.555

Measured AIRE transcriptional activation functional score, Q182E : 1.46

Measured AIRE transcriptional activation functional score, Q358A : 0.941

Measured AIRE transcriptional activation functional score, T504R : 0.922

Measured AIRE transcriptional activation functional score, Q69F : -0.0774

Measured AIRE transcriptional activation functional score, P466Y : 1.21

Measured AIRE transcriptional activation functional score, P405L : 0.801

Measured AIRE transcriptional activation functional score, E298G : 1.13

Measured AIRE transcriptional activation functional score, D502K : 0.812

Measured AIRE transcriptional activation functional score, L341G : 1.11

Measured AIRE transcriptional activation functional score, Q108E : 1.66

Measured AIRE transcriptional activation functional score, Y231M : 0.624

Measured AIRE transcriptional activation functional score, F230S : 0.473

Measured AIRE transcriptional activation functional score, R89H : 0.994

Measured AIRE transcriptional activation functional score, D304G : 0.56

Measured AIRE transcriptional activation functional score, C310M : 0.814

Measured AIRE transcriptional activation functional score, S339A : 1.13

Measured AIRE transcriptional activation functional score, L87F : -0.159

Measured AIRE transcriptional activation functional score, L122P : 0.586

Measured AIRE transcriptional activation functional score, H60Q : 0.338

Measured AIRE transcriptional activation functional score, G469V : 1.14

Measured AIRE transcriptional activation functional score, G306L : 0.492

Measured AIRE transcriptional activation functional score, L255I : 0.98
